# measured.on: PI3-kinase p110-delta/p85-alpha (Homo sapiens)
# Sequence (P27986 whole entry, the tested form may be a part): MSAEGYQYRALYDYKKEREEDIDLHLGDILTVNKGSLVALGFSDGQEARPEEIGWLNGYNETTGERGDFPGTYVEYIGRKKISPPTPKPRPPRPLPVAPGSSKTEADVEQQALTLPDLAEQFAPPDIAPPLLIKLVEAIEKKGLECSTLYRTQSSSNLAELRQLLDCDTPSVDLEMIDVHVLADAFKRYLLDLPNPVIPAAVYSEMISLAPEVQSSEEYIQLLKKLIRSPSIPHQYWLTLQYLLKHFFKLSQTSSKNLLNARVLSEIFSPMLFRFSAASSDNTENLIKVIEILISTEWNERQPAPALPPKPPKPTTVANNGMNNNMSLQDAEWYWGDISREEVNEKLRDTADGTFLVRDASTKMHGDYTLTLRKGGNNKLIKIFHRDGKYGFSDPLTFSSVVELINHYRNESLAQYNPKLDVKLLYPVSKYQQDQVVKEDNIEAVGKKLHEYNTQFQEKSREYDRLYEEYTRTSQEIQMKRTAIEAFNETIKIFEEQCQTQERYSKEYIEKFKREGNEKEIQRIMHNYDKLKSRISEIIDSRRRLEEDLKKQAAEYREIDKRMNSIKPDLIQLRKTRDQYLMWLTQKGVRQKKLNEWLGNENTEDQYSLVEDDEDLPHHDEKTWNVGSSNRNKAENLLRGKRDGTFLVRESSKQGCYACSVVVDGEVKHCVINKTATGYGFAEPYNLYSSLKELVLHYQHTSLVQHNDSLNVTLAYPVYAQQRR
# Sequence (O00329 whole entry, the tested form may be a part): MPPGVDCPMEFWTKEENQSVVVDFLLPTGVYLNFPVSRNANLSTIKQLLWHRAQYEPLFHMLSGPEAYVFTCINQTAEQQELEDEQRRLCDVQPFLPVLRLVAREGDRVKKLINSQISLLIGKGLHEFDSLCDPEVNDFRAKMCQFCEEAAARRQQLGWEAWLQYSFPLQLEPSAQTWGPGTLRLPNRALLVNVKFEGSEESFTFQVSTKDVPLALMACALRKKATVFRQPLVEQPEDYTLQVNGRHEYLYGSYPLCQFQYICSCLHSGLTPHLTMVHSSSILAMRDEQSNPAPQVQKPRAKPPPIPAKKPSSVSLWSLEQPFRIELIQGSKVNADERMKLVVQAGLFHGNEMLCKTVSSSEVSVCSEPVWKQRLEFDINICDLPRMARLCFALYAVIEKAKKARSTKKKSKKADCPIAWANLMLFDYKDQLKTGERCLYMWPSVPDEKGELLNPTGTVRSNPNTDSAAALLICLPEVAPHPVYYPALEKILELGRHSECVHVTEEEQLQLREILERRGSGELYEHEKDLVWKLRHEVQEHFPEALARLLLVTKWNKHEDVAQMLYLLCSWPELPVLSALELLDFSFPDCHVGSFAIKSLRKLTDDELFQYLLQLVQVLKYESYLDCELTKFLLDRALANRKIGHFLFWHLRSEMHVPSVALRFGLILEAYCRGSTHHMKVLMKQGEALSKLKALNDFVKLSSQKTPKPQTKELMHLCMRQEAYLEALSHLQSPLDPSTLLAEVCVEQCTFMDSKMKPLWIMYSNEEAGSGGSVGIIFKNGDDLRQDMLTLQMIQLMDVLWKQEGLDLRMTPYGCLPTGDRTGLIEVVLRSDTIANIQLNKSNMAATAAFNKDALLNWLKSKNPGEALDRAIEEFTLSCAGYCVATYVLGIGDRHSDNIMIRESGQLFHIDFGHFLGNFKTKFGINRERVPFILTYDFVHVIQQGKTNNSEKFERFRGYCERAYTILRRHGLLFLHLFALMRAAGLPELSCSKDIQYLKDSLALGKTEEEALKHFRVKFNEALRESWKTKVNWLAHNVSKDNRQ
# test.details: Inhibition of recombinant human full length N-terminal GST-tagged PI3Kdelta (1 to 1044 residues)/PIK3R1 (1 to 724 residues) expressed in baculovirus expression system using PIP2 as substrate incubated for 2 hrs by ADP-Glo assay
Below: a set of entries, each annotated with reported IC50.
Unit nM implied. Number only.

chemical.smiles: COc1ncc(-c2ccc3c(c2)N(C2CCCCC2)C(=O)CO3)cc1NS(=O)(=O)c1ccc(F)cc1
IC50 (nM): 406

chemical.smiles: CC(C)N1C(=O)COc2ccc(-c3cnc(Cl)c(NS(=O)(=O)c4ccc(F)cc4)c3)cc21
IC50 (nM): 3.8

chemical.smiles: COc1ncc(-c2ccc3c(c2)N(c2ccc(Cl)cc2)C(=O)CO3)cc1NS(=O)(=O)c1ccc(F)cc1
IC50 (nM): 18

Value of IC50 reported for the compound `COc1ccc(N2C(=O)COc3ccc(-c4cnc(Cl)c(NS(=O)(=O)c5ccc(F)cc5)c4)cc32)cc1` is 3.8
